Value source: ChEMBL document CHEMBL5532720

# assay procedure: AUC (0 to infinity) in NOD SCID mouse at 1 mg/kg, iv
# Format: ADME, organism-based
# condition set: in vivo

| query smiles | AUC(0-inf) |
| --- | --- |
| O=C(Nc1cc(Cl)cc(Cl)c1)Nc1nc2ccc([N+](=O)[O-])cc2s1 | 433 ng·h/mL |

---

# assay procedure: Stability in mouse hepatocytes assessed as half-life
# Assay type: ADME, cell-based, Hepatocyte

| query smiles | value unit | half-life |
| --- | --- | --- |
| O=C(Nc1cc(Cl)cc(Cl)c1)Nc1nc2ccc([N+](=O)[O-])cc2s1 | min | 21.1 |

---

# Tested on: CAL-27
# assay procedure: Antiproliferative activity against human CAL-27 cells incubated for 48 hrs by XTT assay
# Type: functional, cell-based
# condition set: CAL-27, 48 h
property: IC50 (µM)

| query smiles | target system | property | operator | measured number |
| --- | --- | --- | --- | --- |
| O=C(Nc1ccccc1)Nc1nc2cc([N+](=O)[O-])ccc2[nH]1 | CAL-27 | IC50 | > | 25 |
| O=C(Nc1ccccc1)Nc1nc2cc([N+](=O)[O-])ccc2o1 | CAL-27 | IC50 | > | 25 |
| CC(=O)Nc1ccc2nc(NC(=O)Nc3cccc(Cl)c3)sc2c1 | CAL-27 | IC50 | > | 25 |
| Cc1ccc(NC(=O)Nc2nc3ccc([N+](=O)[O-])cc3s2)cc1 | CAL-27 | IC50 | = | 7 |
| Cc1ccc(NC(=O)Nc2nc3ccc([N+](=O)[O-])cc3o2)cc1 | CAL-27 | IC50 | = | 25 |
| O=C(Nc1cccc(Cl)c1)Nc1nc2ccc(-c3ccsc3)cc2s1 | CAL-27 | IC50 | > | 25 |
| O=C(Nc1ccc(Cl)cc1)Nc1nc2ccc([N+](=O)[O-])cc2s1 | CAL-27 | IC50 | = | 5 |
| Cc1ccccc1NC(=O)Nc1nc2ccc([N+](=O)[O-])cc2s1 | CAL-27 | IC50 | = | 4 |
| CS(=O)(=O)Nc1ccc2nc(NC(=O)Nc3cccc(Cl)c3)sc2c1 | CAL-27 | IC50 | > | 25 |
| O=C(Nc1nc2ccc([N+](=O)[O-])cc2s1)Nc1ccccc1Br | CAL-27 | IC50 | > | 25 |
| O=C(Nc1ccccc1)Nc1nc2ccc([N+](=O)[O-])cc2s1 | CAL-27 | IC50 | = | 25 |
| O=C(Nc1cccc(Cl)c1)Nc1nc2ccc(Br)cc2s1 | CAL-27 | IC50 | > | 25 |
| O=C(Nc1ccc(Br)cc1)Nc1nc2ccc([N+](=O)[O-])cc2s1 | CAL-27 | IC50 | = | 5 |
| CCOc1ccc2nc(NC(=O)Nc3cccc(Cl)c3)sc2c1 | CAL-27 | IC50 | > | 25 |
| O=C(Nc1cccc(Cl)c1)Nc1nc2ccc(-c3ccccn3)cc2s1 | CAL-27 | IC50 | > | 25 |
| O=C(Nc1cccc(Cl)c1)Nc1nc2ccc([N+](=O)[O-])cc2s1 | CAL-27 | IC50 | = | 3 |
| O=C(Nc1cccc(Cl)c1)Nc1nc2ccc(-c3cccc4ccccc34)cc2s1 | CAL-27 | IC50 | > | 25 |
| Cn1cc(-c2ccc3nc(NC(=O)Nc4cccc(Cl)c4)sc3c2)cn1 | CAL-27 | IC50 | = | 7 |
| O=C(Nc1cccc(Cl)c1)Nc1nc2cc([N+](=O)[O-])ccc2[nH]1 | CAL-27 | IC50 | = | 25 |
| O=C(Nc1cccc(Cl)c1)Nc1nc2ccc(-c3cccs3)cc2s1 | CAL-27 | IC50 | > | 25 |
| COc1ccc(NC(=O)Nc2nc3ccc([N+](=O)[O-])cc3s2)cc1 | CAL-27 | IC50 | > | 25 |
| O=C(Nc1cccc(Cl)c1)Nc1nc2cc([N+](=O)[O-])ccc2o1 | CAL-27 | IC50 | > | 25 |
